- assay method text: yeast display, Sf9 membrane polyspecificity reagent, FACS + sequencing; frameworks hold sequencing errors

{"columns": ["residue string", "polyreactivity (PSR sort gate)"],
 "data": [
  ["QVQLVESGGGLVQAGGSLRLSCAASGRTFRGYVMGWYRQAPGKERELVAAISKSGGSTYYADSVKGRFTISRDIAKNTVYLQMNSLKPEDTAVYYCNALPRTQYDYWGQGTQVTVSS", "low polyreactivity"],
  ["QVQLVESGGGLVQAGGSLRLSCAASGRTFNYYAMGWYRQAPGKEREFVAANSWSVGSTYYADSVKGRFTISRDNAKNTVYLQMNSLKPEDTAVYYCATEVPVGVQRHIFNYYYWGQGTPVTVSS", "low polyreactivity"],
  ["QVQLVESGGGLVQAGGSLRLSCAASGRIFTLYAMGWYRQAPGKERELVAGISRSGGSTYYADSVKGRFTISRDNAKNTVYLQMNSLKPEDTAVYYCNAVPIYYAWRRNKPFDYWGQGTQVTVSS", "low polyreactivity"],
  ["QVQLVESGGGLVQAGGSLRLSCAASGFTFTRYTMGWYRQAPGKERELVAHITSGDSTNYADSVKGRFTISRDNAKNTVYLQMNSLKPEDTAVYYCNAEVKGFFYDYDYWGQGTQVTVSS", "low polyreactivity"]
]}

* * *

- assay method text: yeast display, Sf9 membrane polyspecificity reagent, FACS + sequencing; frameworks hold sequencing errors
measure: polyreactivity (PSR sort gate)

// solved cases for polyreactivity (PSR sort gate) follow
{"columns": ["residue string", "polyreactivity (PSR sort gate)"],
 "data": [
  ["QVQLVESGGGLVQAGGSLRLSCAASGYIFGRNAMGWYRQAPGKEREFFAAISSSGSSTYYADSVKGRFTISRDKAKNTVYLQMNSLKPEDTAVYYCNADRLRSTHDYWGQGTQVTVSS", "high polyreactivity"],
  ["QVQLVESGGGLVQAGGSLRLSCAASGRIFRYYAMGWYRQATGKERELVATITASSGSTYYADSVKGRFTISRDNAKNTVYLQMNSLKPEDSAVYYCAAGFVYRPGSFIRFDYWGQGTQVTVSS", "high polyreactivity"],
  ["QVQLVESGGGLVQAGGSLRLSCAASGIIFSGYAKGWSRQAPGKERELVAAISYSGASTYYADSVKGRFTISRDNAKNSVYLLMNSLKPEDTAVYFCAADRRYGRYWNGWSYYYWGQGTQVTVSS", "high polyreactivity"],
  ["QVQLEESGGGLVQAGGSLRLSCAASGFTFTDYAMGWYRQAPGKERELVAVITYDSTYYADSVKGRFTISRDNAKNTVYLQMNSLKPEDTAVYYCAADSYDWGDFDYWGQGTQVTVSS", "low polyreactivity"],
  ["QVQLVESGGGLVQAGGSLRLSCAASGSTFVFYAMGWYRQAPGKERELVAGISDSGGNTYYADSVKGRFTISRDNAKNTVYLQMNSLKPEDTAVYYCATRYPYYPFYVGIYELDYWGQGTQVTVSS", "low polyreactivity"]
]}

-- ask Return polyreactivity (PSR sort gate) (reported value) for this sequence: QDQLVDSGGGLVQAGGSLRLSCAATGRSFRRYFMGWYIPAPGKERELVAAISYSGATTYYADSVKGRFTISRDYAKNNVYLQMNSLKKEDTAVYYFAATAPGDRYYWGQGTQVTVSS
-- reply high polyreactivity

* * *

- assay method text: yeast display, Sf9 membrane polyspecificity reagent, FACS + sequencing; frameworks hold sequencing errors
measure: polyreactivity (PSR sort gate)

{"columns": ["residue string", "polyreactivity (PSR sort gate)"],
 "data": [
  ["QVQLVESGGGLVQAGGSLRLSCAASGRIFAYYPMGWYRPAPGKERELVAAISRSGVSTYYADSVKGRFTISRDNAKNTVYLQMNSLKPEDTAVYYCAARWRSGFTSGDYWGQGTQVTVSS", "low polyreactivity"],
  ["QVQLVESGGGLVQAGGSLRLSCAASGSIFGLYAMGWYRQAPGKERELVAAINQSGGSTSYADSVKGRFTISRDNAKNTVYLQMNSLKPEDTAVYYCAAKRSWGATRRAYGRYDYWGQGTQVTVSS", "low polyreactivity"],
  ["QVHLVESGGGLVQAGGSLRLSCAASGRTFGINAMGWYRQAPGKERELDAVISFGDGGTYYADSVKGRFTISRDNAKNTVYLQMKSLKPEDTAVYYCATDYQSTSVWGGHFVINPYDYWGQGTQVTVSS", "low polyreactivity"],
  ["QVQLVESGGGLVQAGGSLRLSCAASGIIFSRNVMGWYRPAPGKERELVAVISGSGGSTYYADSVKGRFTISRDNAKNTVYLQMNSLKPEDSAVYYCAASYEYLWGYDYEYWGQGTQVTVSS", "high polyreactivity"],
  ["QVQLVESGGGLVQAGGSLRLSCAASGIILDPNAMGWSRQAPGKERELVAGITRSGVSTYYAESVKGRFTISRDNAKNTVYLKMNSLKPEDTAVYYCAKDRISGSKGEDDDYWGKGTQVTVSS", "low polyreactivity"]
]}

-- ask Please look at this sequence and report its polyreactivity (PSR sort gate): QVQLVESGGGLVQAGGSLRLSCASSGNTFKTNAMGWYRQAPGKERELVAAISSSGSTYYADSVKGRFTISRDNAKNTVYLQMNSLKPEDTAVYYCAVTYRRFYYWGQGTQVTVSS
-- reply high polyreactivity

-- ask Please report the measured polyreactivity (PSR sort gate) for QVQLVESGGGLVQAGGSLRLSCAASGSIFVYYTMGWYRQAPGKERELVAAISISGTSTYYADSVKGRFTISRDNAKNTVYLQMNSLKPEDTAVYYCAADTYYGEDYWGQGTQVTVSS
-- reply low polyreactivity

-- ask Return the recorded polyreactivity (PSR sort gate) value; entry: QVQLVESGGGLVQAGGSLRLTCAASGSIFSRYAMGWYRQAPGKERELVAAISQRAGSTYYADSVKGRFTISRDNAKNTVYLQMNSLKPEDTAVYYCAARRRGRKERGEDYWGQGTQVTVSS
-- reply high polyreactivity

-- ask Give the measured polyreactivity (PSR sort gate) for QVQLVESGGGLVQAGGSLRLSCAASGFTFCRNTMGWYRQAPGKEREFVAAIDWSGGSTTYADSVKGRFTISRDNAKNTVYLQMNSLKPEDTAVYYCAADERRRHYWWGQESDYWGQGTQVNVSS
-- reply low polyreactivity

-- ask # return recorded polyreactivity (PSR sort gate) for input QVQLVESGGGLVQAGGSLRLSCAASGIIFLDYVMGWYRQAPGKERELVAAISRSGGTTYYADSVKGRFTISRDNAKNTVYLQMNSLKPEDTAVYYCAVRSYRDTRFYYWGQGTKVTVSS
-- reply high polyreactivity

-- ask State, in one line, measured polyreactivity (PSR sort gate) of QVQLVESGGGLVQAGGSLRLSCAASGFTFESYAMGWYRQAPGKERELVAAISWNGGSSYYADSVKGRFTISRDNAKNTVYLQMNSLKPEDTAVYYCAARGRAPRFRRIGYDYWGQGTQVSVSS
-- reply high polyreactivity

* * *

- assay method text: yeast display, Sf9 membrane polyspecificity reagent, FACS + sequencing; frameworks hold sequencing errors
measure: polyreactivity (PSR sort gate)

// below: answered sequences
{"columns": ["residue string", "polyreactivity (PSR sort gate)"],
 "data": [
  ["QVQLVESGGGLVQAGGSLRLSCAASGLTFASYAMGWYRPAPGKERELVARISRSGGSTYYADSVKGRFTISRDNAKNTVYLQMNSLKPEDTAVYYCAADYIFRRYPVGGIYDYDYWGQGTQVTVSS", "high polyreactivity"],
  ["QVQLVESGAGLVQAGGSLPLSCAASGFTFTIYAMGWYRQAPGKERELVATISGRAGRTYYADSVKGRFTISRDNAKNTVYLQMNSMKPEDTAGYYCNAGQWRYTGLYYYWGQGTQVTVSS", "high polyreactivity"],
  ["QVQLQESGGGLVQAGGSLRQSYAASGYIFPSLAMGWYRQAPGKEREFVAAIGRGSTNNYEDSVKGRFTISRDNAKNTAYQQMNRLKPEDTAVYYCAAAASPLTRDLYWGQGTQVTVSS", "low polyreactivity"],
  ["QVQLVESGGGLVQAGGSLRLSCAASGNTFVINTMGWYRQAPGKERELVAGISRRGTSTYYEDSVKGRFTISRDNAKNSVYLQMNSLKPEDTEVYYCAVYSEIVRYEYWGQGTQVTVSS", "high polyreactivity"],
  ["QVQLVESGGGLVQAGGSLRLSCAASGRIFTWYAMGWYRQAPGKERELVATISTGGSTNYADSVKGRFTISRDNAKNTVYLQMNSLKPEDTAVYYCAAKWPWSPNAFYYWGQGTQVTVSS", "high polyreactivity"],
  ["QVQLVESGGGLVQAGGSLRLSCAASGRTYGVYAMGWYRQAPGKERELVATITLSGGRTYYAHSVKGRFTISRDNAKNTVYLEMNSLKPEDSAVYYCNARFSYYYGFRASRLDYWGQGTQVNVSS", "high polyreactivity"]
]}

-- ask Please give the documented polyreactivity (PSR sort gate) of QVHLVESGGGLVQAGGSLRLSCAASGGTDVGYAMGWYRQAPGKEMELDATITRRGGNTYYADSVKGRFTISRDNAKNTVYLQKNSLKPEDTAVYYCAARKKGSRVGYDYWGQGTQVTVSS
-- reply high polyreactivity

-- ask Name the recorded polyreactivity (PSR sort gate) of the item QVQLVESGGGLVQAGGSLRLSCAASGLTSIHYMGWSRQAPGKERELVATITSSTGSTYYADSVKGRFTISRDNAKNTVYLQMNSLKPEDTAVYYCAAESFGADGPYQPSYDYWGQGTQVTVSS in your answer.
-- reply low polyreactivity

-- ask In one line, give reported polyreactivity (PSR sort gate) of the entry QVQLVESGGGLVQAGGSLRISCAPSGSTFYKYTMGWYRQAPGKERELVAAISGSGTTTYYADSVKGRFTISRDNAKNTVYLRMNSLKPEDTAVYYCNTARGYDYGGLDYWGQGSQVTVSS .
-- reply high polyreactivity

-- ask Name the recorded polyreactivity (PSR sort gate) of the item QVQHVESGGGLVQAGGSLRLSCAASGIIFGSNVMGWYRQAPGKERELVAAISYSGASTYYADSVKGRFTISRDNAKNTVYLQMNSLKPEDTAVYYCAADGHRNGYYYHEYDSWGQGTQVTVSS in your answer.
-- reply low polyreactivity

-- ask Please give the documented polyreactivity (PSR sort gate) of QVQLVESGGGLVQAGGSLRLSSAASGSTFQDYDMRRSRQAPGKERELVAVISGSGGCTYYADSVKGRFTISRDNAKNTVYLQMNSLKPEDTAVYYCATDIKDGRPGDGVYDYGYWGQGTQVTVSS
-- reply low polyreactivity
